# System: U2OS
# Test: Multiplex assay against U2OS
# Format: toxicity, cell-based
# Condition description: human, 12 h, 1 µM, compound concentration 1 uM, replicate 2
Entries and their Population Pyknosed Nuclei (%)

The following molecules have reported results that may help.
CC(Cc1ccc(O)c(O)c1)C(C)Cc1ccc(O)c(O)c1 (configuration not stated) [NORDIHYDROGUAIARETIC ACID] :: 3%
Cc1c(P(=S)(c2ccccc2)c2ccccc2)n2ccccc2[n+]1C/C=C/c1ccccc1.[Br-] :: 4%
CN(c1cc(C(F)(F)F)nc(OCCC(=O)O)n1)c1cccc2c1CCC2 :: 9%
Cc1ccc(NC(=O)Nc2cc(C(F)(F)F)ccc2F)cc1Nc1ccc2c(c1)NC(=O)/C2=C\c1ccc[nH]1 :: 17%
CS(=O)(=O)N1CCCC(NC(=O)[C@H](CCC2CCCCC2)NC(=O)c2ccc(CNC(=O)c3cnc4ccccn34)cc2)C1 (some centres not stated) :: 8% [middle of 4 runs]

Qu. Give Population Pyknosed Nuclei (%); test system U2OS; molecule C[C@@H](Oc1cc(-n2cnc3ccc(CN4CCN(C)CC4)cc32)sc1C(N)=O)c1ccccc1C(F)(F)F
Ans. 16%

Qu. Please respond with reported Population Pyknosed Nuclei (%) (system U2OS) for CC[C@H](Nc1ncnc2[nH]cnc12)c1nc2cccc(F)c2c(=O)n1-c1ccccc1 .
Ans. 5%

Qu. Quote Population Pyknosed Nuclei (%) with test system U2OS for Cl.Cn1c2c(c3ccc(Cl)c(Cl)c31)C(C#N)C1(CCNCC1)NC2=O (configuration not stated)
Ans. 0%

Qu. // fetch Population Pyknosed Nuclei (%) for CN1C(=O)[C@@H](NC(=O)c2cc3ccccc3[nH]2)N=C(c2ccccc2)c2ccccc21 [DEVAZEPIDE] ; system: U2OS
Ans. 9%

Qu. Look up and report measured Population Pyknosed Nuclei (%) (U2OS) for the following molecule: Cc1ccc(S(=O)(=O)NC2c3ccccc3Oc3ccccc32)cc1
Ans. 12%

Qu. Provide the reported Population Pyknosed Nuclei (%) (system: U2OS) for CC(C)C[C@H](NC(=O)[C@H](Cc1ccccc1)NC(=O)CNC(=O)CNC(=O)[C@@H](N)Cc1ccc(O)cc1)C(=O)O
Ans. 5%

Qu. Give measured Population Pyknosed Nuclei (%) for CCCCN(CC)c1nc(C)nc2c1c(C)cn2-c1c(C)cc(C)cc1C.Cl (U2OS).
Ans. 9%

Qu. Find Population Pyknosed Nuclei (%) for CCCCCNC(=N)N/N=C/c1c[nH]c2ccc(OC)cc12.O=C(O)/C=C\C(=O)O [TEGASEROD MALEATE] on U2OS and write it down.
Ans. 8%

Qu. Report Population Pyknosed Nuclei (%) on U2OS for this entry: CCOc1ccn(-c2ccc(F)cc2)c(=O)c1C(=O)Nc1ccc(Oc2ccnc(N)c2Cl)c(F)c1
Ans. 8%

Qu. Please look at COc1cc(Nc2ccnc3ccc(Br)cc23)cc(OC)c1OC and tell me its recorded Population Pyknosed Nuclei (%) on U2OS.
Ans. 16%

Qu. Report its Population Pyknosed Nuclei (%) with U2OS as the test system: Cc1c(Nc2ccc(S(=O)(=O)N3CCN(C)CC3)cc2F)nc2ccc(-c3cnn(C4CC4)c3)cn2c1=O
Ans. 1%

Qu. Under U2OS, report Population Pyknosed Nuclei (%) for N#Cc1cccc(C(=O)Nc2cc(-c3ccccc3)nn2-c2ccccc2)c1
Ans. 10%

Data origin: ChEMBL document CHEMBL4689842
